# System: MDA-MB-231 antiproliferation
# ASSAY_REMARKS: PubChem AID 1224915
REPORTED_ENDPOINT: EC50

Problem: Which measured EC50 value corresponds to COc1cc(-c2nn(CCN3CCC(N(C)C)CC3)c3ncnc(N)c23)ccc1NC(=O)OC(C)(C)C ?
Result: 9 nM

Taken from PubChem BioAssay AID1224915.
